target-of-assay: his-labeled human IL-13 (immunogen A) (human) (UniProt P35225)
experiment: SPR (Biacore), antibody captured by anti-human Fc, immunogen A as analyte
Listed binders paired with reported kon

- binder: "c35E2C3 (mouse-human chimeric IL-13 antibody) (antibody, V domains shown) VH: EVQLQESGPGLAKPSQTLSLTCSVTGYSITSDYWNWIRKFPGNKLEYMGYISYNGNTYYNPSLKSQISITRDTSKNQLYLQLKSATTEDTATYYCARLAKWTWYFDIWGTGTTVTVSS VL: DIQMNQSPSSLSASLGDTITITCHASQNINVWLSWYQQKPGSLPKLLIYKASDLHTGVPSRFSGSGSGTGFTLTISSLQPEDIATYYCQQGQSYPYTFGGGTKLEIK"
  kon: "300000 M⁻¹ s⁻¹"
- binder: "c70F10A10 (mouse-human chimeric IL-13 antibody) (antibody, V domains shown) VH: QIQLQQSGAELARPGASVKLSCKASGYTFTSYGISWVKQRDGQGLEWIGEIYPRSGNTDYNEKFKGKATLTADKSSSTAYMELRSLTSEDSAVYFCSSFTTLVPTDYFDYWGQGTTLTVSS VL: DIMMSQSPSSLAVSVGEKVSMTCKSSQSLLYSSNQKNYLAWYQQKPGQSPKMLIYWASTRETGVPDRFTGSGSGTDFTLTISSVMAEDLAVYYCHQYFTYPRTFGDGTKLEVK"
  kon: "267000 M⁻¹ s⁻¹"
- binder: "c29D9H8 (mouse-human chimeric IL-13 antibody) (antibody, V domains shown) VH: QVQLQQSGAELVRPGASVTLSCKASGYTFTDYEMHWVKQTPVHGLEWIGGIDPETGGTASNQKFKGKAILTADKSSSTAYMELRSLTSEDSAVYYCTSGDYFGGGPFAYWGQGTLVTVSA VL: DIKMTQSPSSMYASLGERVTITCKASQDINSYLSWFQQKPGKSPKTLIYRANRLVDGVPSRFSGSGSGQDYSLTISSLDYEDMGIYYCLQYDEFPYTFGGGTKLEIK"
  kon: "2.51e+07 M⁻¹ s⁻¹"

Next, consider the following binder.
Input: Which kon reading was recorded for the binder c35H6E1 (mouse-human chimeric IL-13 antibody) (antibody, V domains shown) VH: QVTLKESGPGILQSSQTLSLTCSFSGFSLSTSNMGVSWIRQPSGKGLEWLAHIYWDDDKRYNPSLESRLTISKDTSRNQVFLKITSVDTADSATYYCARRTNYFSTRDYFDYWGQGTTLTVSS VL: DIQMTQSPASLSVSVGETVTITCRASENIYSNLVWYQQKQGKSPQLLVYAATKLADGVPSRFSGSGSGTQYSLKINSLQSEDFGSYYCQHFWGFPWTFGGGTKLEIK ?
Output: 1.33e+06 M⁻¹ s⁻¹
